- assay-system: Ferrochelatase, mitochondrial (Homo sapiens); note: in the data inactive means no Kd found up to 30 µM
- Sequence (P22830 whole entry): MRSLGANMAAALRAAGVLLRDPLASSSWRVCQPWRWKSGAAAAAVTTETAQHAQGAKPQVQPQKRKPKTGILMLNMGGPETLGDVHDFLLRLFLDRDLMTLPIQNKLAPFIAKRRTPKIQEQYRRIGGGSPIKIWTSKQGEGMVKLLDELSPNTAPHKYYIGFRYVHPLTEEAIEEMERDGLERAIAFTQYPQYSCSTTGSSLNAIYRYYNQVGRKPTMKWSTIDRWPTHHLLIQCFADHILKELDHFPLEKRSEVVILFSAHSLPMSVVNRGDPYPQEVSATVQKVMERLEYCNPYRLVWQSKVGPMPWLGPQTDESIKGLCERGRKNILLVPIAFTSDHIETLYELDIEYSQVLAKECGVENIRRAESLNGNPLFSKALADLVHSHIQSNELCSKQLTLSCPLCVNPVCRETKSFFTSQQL
Activity calls are given as the source filed them.
# valid calls are true (1) = active, false (0) = inactive; nothing else

Query: Recorded call for C[C@@H](N)c1ccc(C(=O)Nc2ccnc3[nH]ccc23)cc1 ?
Result: false (0)

Query: Recorded call for CCn1cc(-c2ccnc3[nH]c(-c4cccc(CN(C)C)c4)cc23)c(-c2ccc(NC(=O)N(C)C)cc2)n1 ?
Result: true (1)

Query: Recorded call for C[C@@H](Oc1cc(-n2cnc3ccc(CN4CCN(C)CC4)cc32)sc1C(N)=O)c1ccccc1C(F)(F)F ?
Result: false (0)

Query: Recorded call for CO[C@H]1C[C@@H]2CC[C@@H](C)[C@@](O)(O2)C(=O)C(=O)N2CCCC[C@H]2C(=O)O[C@H]([C@H](C)C[C@@H]2CC[C@@H](O)[C@H](OC)C2)CC(=O)[C@H](C)/C=C(\C)[C@@H](O)[C@@H](OC)C(=O)[C@H](C)C[C@H](C)/C=C/C=C/C=C/1C ?
Result: false (0)

Query: Recorded call for COc1cc2ncnc(Oc3cccc(NC(=O)Nc4cc(C(C)(C)C(F)(F)F)on4)c3)c2cc1OC ?
Result: false (0)

Query: Recorded call for Cc1nc2cc(-c3nn(C(C)C)c4ncnc(N)c34)ccc2o1 ?
Result: false (0)

Query: Recorded call for COc1cc([C@@H]2c3cc4c(cc3[C@H](O)[C@H]3COC(=O)[C@@H]23)OCO4)cc(OC)c1OC ?
Result: false (0)

Query: Recorded call for NC(=O)c1c(OCc2c(F)cc(Br)cc2F)nsc1NC(=O)NCCCCN1CCCC1 ?
Result: false (0)

Query: Recorded call for CO[C@H]1C[C@@H]2CC[C@@H](C)[C@@](O)(O2)C(=O)C(=O)N2CCCC[C@H]2C(=O)O[C@H]([C@H](C)C[C@@H]2CC[C@@H](OC(=O)C(C)(CO)CO)[C@H](OC)C2)CC(=O)[C@H](C)/C=C(\C)[C@@H](O)[C@@H](OC)C(=O)[C@H](C)C[C@H](C)/C=C/C=C/C=C/1C ?
Result: false (0)

Query: Recorded call for COc1c(OCCCN2CCOCC2)ccc2c1N=C(NC(=O)c1cnc(N)nc1)N1CCN=C21 ?
Result: false (0)

Query: Recorded call for COCC(=O)NC/C=C/c1ccc2ncnc(Nc3ccc(Oc4ccc(C)nc4)c(C)c3)c2c1 ?
Result: true (1)

Query: Recorded call for O=C(NOCCO)c1cc(CN2OCCCC2=O)c(F)c(F)c1Nc1ccc(I)cc1F ?
Result: false (0)

Query: Recorded call for Cn1cc(-c2cnc3ccc4ccc(CS(=O)(=O)NCc5ccccn5)cc4c(=O)c3c2)cn1 ?
Result: true (1)

Query: Recorded call for Cc1[nH]c(/C=C2\C(=O)Nc3ccccc32)c(C)c1CCC(=O)O [ORANTINIB] ?
Result: false (0)

Query: Recorded call for Cc1nc(NC(=O)N2CCC[C@H]2C(N)=O)sc1-c1ccnc(C(C)(C)C(F)(F)F)c1 ?
Result: false (0)

Query: Recorded call for COc1cc(Nc2ncc3c(n2)-c2ccc(Cl)cc2C(c2c(F)cccc2OC)=NC3)ccc1C(=O)O ?
Result: false (0)

Query: Recorded call for Cc1cc(Nc2ncnc3ccc(NC4=NC(C)(C)CO4)cc23)ccc1Oc1ccn2ncnc2c1 ?
Result: true (1)

Query: Recorded call for CNC(=O)c1cccc2cc(Oc3ccnc4cc(OCC5(N)CC5)c(OC)cc34)ccc12 ?
Result: false (0)

Query: Recorded call for NC1(c2ccc(-c3nc4ccn5c(=O)[nH]nc5c4cc3-c3ccccc3)cc2)CCC1 ?
Result: true (1)

Query: Recorded call for CCn1c(C(=O)N(C2CC2)C2CC2)cc2c3c(ncn3C)c(Nc3cc(C)n(C)n3)nc21 ?
Result: false (0)

Query: Recorded call for C[C@@H](Oc1cc(C(=O)Nc2ccc(C(=O)N3CCN(C)CC3)cc2)nnc1N)c1c(Cl)ccc(F)c1Cl ?
Result: false (0)
